B1: MNAT1 (parent)
chain: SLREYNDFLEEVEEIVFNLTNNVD

# Variants of: B1
# run.description: protein stability index of a GFP-peptide fusion (GPS, HEK-293T) (PSI 1-6); higher = more stable;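 note: lentivirally expressed fusions sorted by FACS into six bins by GFP to DsRed ratio, PSI derived from sequencing read proportions per bin multiplied by bin number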
# condition.set: c terminus: a fixed tail appended
Kindly supply the reported protein stability index values for the records listed here.
Answers are plain numbers.

Answered examples (2):
Ask: Look up and state reported protein stability index for SLREYNDFLEEVEEIVFNHTNNVD [L19H]
Result: 4.43

Ask: Look up and state reported protein stability index for SLREYNQFLEEVEEIVFNLTNNVD [D7Q]
Result: 1.83

For each of the variants below, state protein stability index.
1. SLREYNDFLREVEEIVFNLTNNVD [E10R]
2. SLREYNDFLEEVFEIVFNLTNNVD [E13F]
3. SLRSYNDFLEEVEEIVFNLTNNVD [E4S]
4. SSREYNDFLEEVEEIVFNLTNNVD [L2S]
5. SLREYNDFLAEVEEIVFNLTNNVD [E10A]
6. SLREYNDFLEEVEEIFFNLTNNVD [V16F]
7. SAREYNDFLEEVEEIVFNLTNNVD [L2A]

Result:
1: 1.86; 2: 2.27; 3: 2.31; 4: 2.71; 5: 1.58; 6: 1.75; 7: 2.58

For each of the variants below, state protein stability index.
1. SLREYNDDLEEVEEIVFNLTNNVD [F8D]
2. SLREYNDFLEEVEEIMFNLTNNVD [V16M]

Result:
[4.87, 2.51]

For each of the variants below, state protein stability index.
1. SYREYNDFLEEVEEIVFNLTNNVD [L2Y]
2. SLREYNDFLEEVEEIVFALTNNVD [N18A]
3. SLRDYNDFLEEVEEIVFNLTNNVD [E4D]
4. WLREYNDFLEEVEEIVFNLTNNVD [S1W]
5. SLREYNHFLEEVEEIVFNLTNNVD [D7H]
6. SLREYNDFLEEVEEIVFNLTNHVD [N22H]
7. SLSEYNDFLEEVEEIVFNLTNNVD [R3S]
8. SLREYNDFLEEVVEIVFNLTNNVD [E13V]

Result:
1. 2.36
2. 1.84
3. 2.19
4. 2.11
5. 1.31
6. 2.15
7. 2.55
8. 2.87

For each of the variants below, state protein stability index.
1. SLREYNDGLEEVEEIVFNLTNNVD [F8G]
2. SLREYNDFLTEVEEIVFNLTNNVD [E10T]
3. SLREYNDFLEEVEEITFNLTNNVD [V16T]

Result:
1. 4.11
2. 2.01
3. 3.21
